# measurement_notes: HIV-1 RF cell protection assay (XTT dye reduction), cytotoxicity in uninfected cells
# Format: cell-based
# experimental_conditions: human; XTT dye reduction, uninfected CEM-SS cells, six days; mean of 2 to 3 experiments; read-out: HIV-1 RF Cell Protection Assay CC50
assay_endpoint: CC50 at 6 days (µM)

- compound_structure_string: "Cc1ccnc2c1NC(=O)c1cccnc1N2C1CC1"
  relation_sign: ">"
  reported_value: 1000
- compound_structure_string: "CC(C)c1nc(COC(N)=O)n(Cc2ccncc2)c1Sc1cc(Cl)cc(Cl)c1"
  relation_sign: "="
  reported_value: 66.1
- compound_structure_string: "Cc1cn([C@H]2C=C[C@@H](CO)O2)c(=O)[nH]c1=O"
  relation_sign: ">"
  reported_value: 32
- compound_structure_string: "O=C1Nc2ccc(Cl)cc2[C@@](C#CC2CC2)(C(F)(F)F)O1"
  relation_sign: "="
  reported_value: 57.4
- compound_structure_string: "CC(C)Nc1cccnc1N1CCN(C(=O)c2cc3cc(NS(C)(=O)=O)ccc3[nH]2)CC1"
  relation_sign: "="
  reported_value: 90.5

----------
# measurement_notes: HIV-1 RF cell protection assay (XTT dye reduction), cytotoxicity in uninfected cells
# Format: cell-based
# experimental_conditions: human

- compound: "Nc1ccn([C@@H]2CS[C@H](CO)O2)c(=O)n1 [Compound 3TC, lamivudine]"
  CC50 at 6 days: "> 1000 µM"

----------
# System: HIV-1 RF infection of CEM-SS cells
# measurement_notes: HIV-1 RF cell protection assay (XTT dye reduction), antiviral activity
# Type: cell-based
# experimental_conditions: CC50 divided by EC50, cell protection assay
Let's look at some molecules and their measured HIV-1 RF Cell Protection Assay TI (therapeutic index, CC50/EC50).
assay_endpoint: HIV-1 RF Cell Protection Assay TI (therapeutic index, CC50/EC50)

- molecule: "CC(C)Nc1cccnc1N1CCN(C(=O)c2cc3cc(NS(C)(=O)=O)ccc3[nH]2)CC1 [DLV, delavirdine]"
  reported_value: "6,961"
- molecule: "O=C(O)C(=O)CC(=O)c1cccn1Cc1ccc(F)cc1 [Compound L-731988]"
  reported_value: 55.6
- molecule: "Cc1cn([C@H]2C=C[C@@H](CO)O2)c(=O)[nH]c1=O [d4T, stavudine]"
  reported_value: ">64"
- molecule: "O=C1Nc2ccc(Cl)cc2[C@@](C#CC2CC2)(C(F)(F)F)O1 [EFV, efavirenz]"
  reported_value: "38,266"
- molecule: "Cc1cn([C@H]2C[C@H](N=[N+]=[N-])[C@@H](CO)O2)c(=O)[nH]c1=O [AZT, 3′-Azido-3′-deoxythymidine]"
  reported_value: ">40,000"
- molecule: "Nc1ccn([C@@H]2CS[C@H](CO)O2)c(=O)n1 [Compound 3TC, lamivudine]"
  reported_value: ">15,384"
- molecule: "CC(C)c1nc(COC(N)=O)n(Cc2ccncc2)c1Sc1cc(Cl)cc(Cl)c1 [CPV, Capravirine]"
  reported_value: "47,214"
- molecule: "Cc1ccnc2c1NC(=O)c1cccnc1N2C1CC1 [NVP, Nevirapine]"
  reported_value: ">30,303"

----------
# Tested on: CEM-SS cells
# measurement_notes: HIV-1 RF cell protection assay (XTT dye reduction), cytotoxicity in uninfected cells
# Type: cell-based
# experimental_conditions: XTT dye reduction, uninfected CEM-SS cells, six days; mean of 2 to 3 experiments

- compound_structure_string: "O=C(O)C(=O)CC(=O)c1cccn1Cc1ccc(F)cc1"
  CC50: "250 µM"
